All figures here come from patent US20110159086A1.

experiment: Pharmacokinetic study in rats, plasma levels of the (4S,5S) cis enantiomer by chiral LC-MS/MS; assay type: in vivo, male Wistar Hannover rats; conditions: Wistar Hannover, plasma; iv, 1 mg/kg, male rat, solution
readout.kind: clearance
The number alone won't do; follow it with the unit.

// sample C[C@@H]1C(C(=O)NN2[C@H](C)CCC[C@@H]2C)=NN(c2ccc(Cl)cc2Cl)[C@@H]1c1ccc(Cl)cc1 [(4S,5S) cis enantiomer] , its clearance was 30 mL/min/kg

====

assay: Pharmacokinetic study in rats, plasma levels of the (4S,5S) cis enantiomer by chiral LC-MS/MS; type: in vivo, male Wistar Hannover rats; conditions: male, Wistar Hannover, rat, plasma, iv, 1 mg/kg, iv, 1 mg/kg, solution, read-out: Vd
readout.kind: Vd (L/kg)
The answer is to be given in L/kg; state only the numeric part.

// sample C[C@@H]1C(C(=O)NN2[C@H](C)CCC[C@@H]2C)=NN(c2ccc(Cl)cc2Cl)[C@@H]1c1ccc(Cl)cc1 [(4S,5S) cis enantiomer] , its Vd was 21.1

====

assay: Pharmacokinetic study in rats, plasma levels of the (4S,5S) cis enantiomer by chiral LC-MS/MS; format: in vivo, male Wistar Hannover rats; conditions: Wistar Hannover (HSDHan:WIST); po, 20 mg/kg, male rat, single dose, fasting; analyte (4S,5S) cis enantiomer in plasma; suspension = active alone in 5% arabic gum, HME = example 15
readout.kind: Tmax (h)
The answer is to be given in h; state only the numeric part.

// sample C[C@@H]1C(C(=O)NN2[C@H](C)CCC[C@@H]2C)=NN(c2ccc(Cl)cc2Cl)[C@@H]1c1ccc(Cl)cc1 [(4S,5S) cis enantiomer] , its Tmax was 6

====

experiment: Pharmacokinetic study in rats, plasma levels of the (4S,5S) cis enantiomer by chiral LC-MS/MS; type: in vivo, male Wistar Hannover rats; details: Wistar Hannover, plasma; iv, 1 mg/kg, male rat, solution
readout.kind: AUC(0-inf) (µg·h/mL)
The answer is to be given in µg·h/mL; state only the numeric part.

// sample C[C@@H]1C(C(=O)NN2[C@H](C)CCC[C@@H]2C)=NN(c2ccc(Cl)cc2Cl)[C@@H]1c1ccc(Cl)cc1 [(4S,5S) cis enantiomer] , its AUC(0-inf) was 0.559

====

experiment: Pharmacokinetic study in rats, plasma levels of the (4S,5S) cis enantiomer by chiral LC-MS/MS; type: in vivo, male Wistar Hannover rats; details: male, Wistar Hannover, rat, plasma, iv, 1 mg/kg, iv, 1 mg/kg, solution, read-out: Vss
readout.kind: Vd (L/kg)
The answer is to be given in L/kg; state only the numeric part.

// sample C[C@@H]1C(C(=O)NN2[C@H](C)CCC[C@@H]2C)=NN(c2ccc(Cl)cc2Cl)[C@@H]1c1ccc(Cl)cc1 [(4S,5S) cis enantiomer] , its Vd was 8.7
